Attribution: patent US20240182536A1

# tested.system: T1, human IL-18 binding protein (human, UniProt O95998 31-194)
# T1 sequence (looked up): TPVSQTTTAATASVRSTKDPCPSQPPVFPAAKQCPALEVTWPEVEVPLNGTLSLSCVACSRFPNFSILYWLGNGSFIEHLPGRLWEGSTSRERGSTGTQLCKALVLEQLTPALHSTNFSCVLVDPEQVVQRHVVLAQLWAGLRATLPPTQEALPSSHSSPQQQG
# experimental.details: cell-based or functional assay
measured.attribute: Ratio (-BP/+BP), DF-10000
Answer with a number only.

# example entries with known answers
yeast display IL-18 variant L5W, I22M, K53N, S55Y, Q56H (ligand) YFGKWESKLSVIRNLNDQVLFMDQGNRPLFEDMTDSDMRDNAPRTIFIISMYNDYHPRGMAVTISVKSEKISTLSSENKIISFKEMNPPDNIKDTKSDIIFFQRSVPGHDNKMQFESSSYEGYFLASEKERDLFKLILKKEDELGDRSIMFTVQNED: 1.05
yeast display IL-18 variant K53Y, S55G (ligand) YFGKLESKLSVIRNLNDQVLFIDQGNRPLFEDMTDSDMRDNAPRTIFIISMYYDGQPRGMAVTISVKSEKISTLSSENKIISFKEMNPPDNIKDTKSDIIFFQRSVPGHDNKMQFESSSYEGYFLASEKERDLFKLILKKEDELGDRSIMFTVQNED: 1.71

Query: What measured Ratio (-BP/+BP), DF-10000 goes with yeast display IL-18 variant K53N, S55I (ligand) YFGKLESKLSVIRNLNDQVLFIDQGNRPLFEDMTDSDMRDNAPRTIFIISMYNDIQPRGMAVTISVKSEKISTLSSENKIISFKEMNPPDNIKDTKSDIIFFQRSVPGHDNKMQFESSSYEGYFLASEKERDLFKLILKKEDELGDRSIMFTVQNED ?
Reply: 1.1
